Assign EC50 to each entry below.
- systemTested: T1, Human recombinant FCGRT & B2M Heterodimer Protein (hFcRn) (human, UniProt P55899 24-297; P61769 21-119)
- T1 construct: Bought protein; also called human FcRn
- T1 sequence (P55899 24-297 limits assumed, chain 1 of 2): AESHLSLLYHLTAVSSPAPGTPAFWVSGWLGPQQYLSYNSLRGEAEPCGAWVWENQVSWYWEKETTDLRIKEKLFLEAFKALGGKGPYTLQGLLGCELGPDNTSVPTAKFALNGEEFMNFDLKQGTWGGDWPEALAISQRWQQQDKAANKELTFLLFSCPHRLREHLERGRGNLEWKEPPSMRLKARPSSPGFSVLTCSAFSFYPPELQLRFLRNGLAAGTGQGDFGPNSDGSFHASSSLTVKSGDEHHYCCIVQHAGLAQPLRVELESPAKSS
- T1 sequence (P61769 21-119 limits assumed, chain 2 of 2): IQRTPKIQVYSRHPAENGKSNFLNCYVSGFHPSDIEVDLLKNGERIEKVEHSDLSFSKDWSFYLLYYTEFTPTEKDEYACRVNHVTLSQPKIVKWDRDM
- assaySummary: ELISA, hFcRn coated at 1 ug/mL, IgG4 antibody titrated, anti-human IgG Fab-HRP
Give your result as the value with the unit written after it.

Asked: Given the entry ZLP193 (antibody, V domains shown, Full-length chimeric antibody: mouse variable domains with human IgG1 or IgG4 heavy constant domain and human kappa or lambda light constant domain; also called chimeric anti-FcRn antibody ZLP193) VH: EVQLQESGPDLVKPSQSLSLTCTVTGYSFTSGYSWHWIRQFPGNRLEWMGYIHDSGGTNYNPSLKSRISITRDTSKNQFFLQLNSVTTEDTATYYCAREENYRYFDVWGAGTTVTVSS VL: DIQMMQSPAIMSASPGEKVTITCSASSSVSYMHWFQQKPGTSPKLWIYSTSNLASGVPARFSGSGSGTSYSLTISRMEAEDAATYYCQQRSSYPPTFGDGTRLEIK , report its measured EC50.
Given back: 0.439 nM

Asked: Item ZLP64 (antibody, V domains shown, Full-length chimeric antibody; human kappa or lambda light constant domain) VH: QIQLLQSGPELVKPGASVKVSCKASGYIFTSYNMYWMKQSHGKSLEWIGYIDPYNGGTNYNQKFKGKATLTVDKSSSTAYMHLNSLTSEDSAVYYCAVDGYNGAMDYWGQGTSVTVSS VL: DIVLTQSPASLTVSLGQRATISCRASESVDRYGNSFMHWYQQKPGQPPKLLIYRASNLESGVPARFSGSGSRTDFTLTINPVEADDVASYYCQQSNEDPLTFGAGTKLELK has what recorded EC50?
Given back: 0.212 nM

Asked: Item under review: ZLP42 (antibody, V domains shown, Full-length chimeric antibody) VH: QVQLQQPGAELVKPGASVKLSCTASGFNIKDTYMYWVKQRPEQGLEWIGRIDPANGITKFDPKFQDKATVTADTFSNIAYLHLSSLTSEDTAVYYCTTTAVMATEAMDRWGQGTSVTVSS VL: QIVLTQSPASLAVSLGQRATISCRASESVDSYGNSFMHWYQQKPGQPPKLLIYRASNLESGIPARFSGSGSRTDFTLTINPVEADDVATYYCQQSNEDPYTFGGGTKLEIK . Reported EC50?
Given back: 0.981 nM

Asked: What value of measured EC50 is listed for ZLP22 (antibody, V domains shown, Full-length chimeric antibody; human kappa or lambda light constant domain) VH: EVKLVESGAELARPGASVKMSCKASGYTFTSYAMHWVKQRPGQGLEWIGYINPSSGYTNYNQKFKDKATLTADKSSSTAYMQLSSLTSEDSAVYYCARKGLRYAVDYWGQGTSVTVSS VL: DIVMTQSPSSLSVSAGEKVTMSCKSSQSLLNSGNQKNYLAWYQQKPGQPPKLLIYGASTRESGVPDRFTGSGSGTDYTLTISSVQAEDLALYYCQQHYSTPYTFGGGTKLEIK ?
Given back: 2.39 nM

Asked: Name the reported EC50 value associated with the binder ZLP44 (antibody, V domains shown, Full-length chimeric antibody; human kappa or lambda light constant domain) VH: EVQLQQSGPELVKPGASVKVSCKASGYIFTSYNMYWMKQSHGKSLEWIGYIDPYNGGTRYNQKFKGKATLTVDKSSSTAYMHLNSLTSEDSAVYYCAVDGYNGAMDYWGQGTSVTVSS VL: QIVLTQSPASLAVSLGQRATISCRASESVDSYGNSFMHWYQQKPGQPPKLLIYRASNLESGIPARFSGSGSRTDFTLTINPVEADDVATYYCQQSNEDPYTFGGGTKLEIK
Given back: 0.673 nM
